The measured values listed here are drawn from patent US20090023721A1.

MEASURED_TARGET: human cloned 5-HT2A receptor, expressed in L929 cells (Homo sapiens)
Construct: expressed in transfected cells; host or cells: L929 cells
Sequence (P28223 whole entry): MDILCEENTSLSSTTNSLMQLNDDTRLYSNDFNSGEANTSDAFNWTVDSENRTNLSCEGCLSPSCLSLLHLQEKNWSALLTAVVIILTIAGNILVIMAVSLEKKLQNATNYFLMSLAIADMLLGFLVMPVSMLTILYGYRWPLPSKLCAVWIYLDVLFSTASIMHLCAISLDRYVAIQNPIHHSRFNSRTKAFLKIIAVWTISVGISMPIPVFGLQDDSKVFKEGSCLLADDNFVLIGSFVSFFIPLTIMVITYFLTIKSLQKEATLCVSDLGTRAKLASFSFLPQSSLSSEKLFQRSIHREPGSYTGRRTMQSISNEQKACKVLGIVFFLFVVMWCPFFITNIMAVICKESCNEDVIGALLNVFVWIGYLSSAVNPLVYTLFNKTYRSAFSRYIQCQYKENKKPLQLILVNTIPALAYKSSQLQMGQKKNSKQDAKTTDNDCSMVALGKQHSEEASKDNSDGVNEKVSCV
TEST_PROTOCOL: In vitro radioligand binding affinity for 5-HT2A receptor ([125I]R91150)
RECORDED_CONDITIONS: human cloned 5-HT2A receptor in L929 cells, [125I]R91150; read-out: h-5HT2A (converted)
So I've got a bunch of molecules here, and I need their IC50 values.
API: value field is a number in nM; no unit string.

Req: Query IC50 for CN(C)C[C@@H]1C[C@@H]2c3ccccc3Cc3ccc(F)cc3[C@H]2S1(=O)=O
Resp: 8510

Req: Query IC50 for CN(C)[C@@H]1CO[C@H]2c3cc(F)ccc3Cc3ccccc3[C@H]2C1
Resp: 676

Req: Query IC50 for CN(C)C[C@H]1C[C@@H]2c3ccccc3Cc3ccc(F)cc3[C@H]2S1
Resp: 661
